# System: CD2F1 mice, L1210 leukemia ip, survival T/C
# assayText: NCI In Vivo Anticancer Drug Screen. Data for tumor model L1210 Leukemia (intraperitoneal) in CD2F1 (CDF1) mice
# conditionDescription: endpoint: mean survival time; dose: 200.0 mg/kg/injection; schedule: Q04DX003 (ip); vehicle: saline with Tween-80; higher = longer survival
Inconclusive results and toxic doses are left out.
measuredParameter: T/C

According to the records, this compound `Fc1c(F)c(F)c(OP2(Oc3c(F)c(F)c(F)c(F)c3F)=NP(Oc3c(F)c(F)c(F)c(F)c3F)(Oc3c(F)c(F)c(F)c(F)c3F)=NP(Oc3c(F)c(F)c(F)c(F)c3F)(Oc3c(F)c(F)c(F)c(F)c3F)=N2)c(F)c1F` displays T/C of 95 % of control

Lab note: `Cn1c(CC(O)(C(F)(F)Cl)C(F)(F)Cl)cc(=O)n1-c1ccccc1` gave T/C of 97 % of control

`CC(=O)OC(OC(C)=O)c1ccc([N+](=O)[O-])cc1` yielded T/C of 100 % of control

Please fill in: T/C reported for O=C(O)C(Cl)(Br)C(Cl)c1ccccc1 (configuration not stated) = 102 % of control

Lookup result for C=CC1CN(CCc2cc3ccccc3[nH]2)CCC1CC(=O)OCC (configuration not stated) ; measured T/C: 101 % of control

T/C reading for `CC(/C=C/c1ccccc1)=Nc1ccccc1` : 103 % of control

Noted for CCC1(C)CCC2C(=CCC3C(C)(C(=O)O)CCCC23C)C1 (configuration not stated) : its T/C reads 88 % of control

Entry `CCCCCCCCC(=O)c1ccc(N=Nc2ccc(OCC)cc2)cc1` , T/C reported as 91 % of control

Summary for this compound, `O=[N+]([O-])c1ccc(N=Nc2ccc3c(c2)-c2ccccc2C3=P(c2ccccc2)(c2ccccc2)c2ccccc2)cc1` : T/C is 91 % of control

* * *

# Tested on: CD2F1 mice, L1210 leukemia ip, survival T/C
# assayText: NCI In Vivo Anticancer Drug Screen. Data for tumor model L1210 Leukemia (intraperitoneal) in CD2F1 (CDF1) mice
# conditionDescription: endpoint: mean survival time; dose: 200.0 mg/kg/injection; schedule: Q01DX001 (ip); vehicle: Klucel (hydroxypropylcellulose) (HPC); higher = longer survival
Toxic doses and inconclusive results are not listed.
measuredParameter: T/C

Examples with their reported T/C follow.
# molecule `CC(C)(C)NO` ; its T/C = 96 % of control

Notebook: `CCOC(=O)Nc1cc(NC/C(CCc2ccccc2)=N/O)c([N+](=O)[O-])c(N)n1` , T/C read as 91 % of control

Form: molecule = `CCOC(=O)CCC1(CCC(=O)OCC)c2ccccc2-c2ccccc21` ; T/C = 104 % of control

Lab note: measured T/C of CCOC(=O)C1(C(=O)OCC)C(C)CC(OCC)N1C(=O)c1cc2c(cc1[N+](=O)[O-])OCO2 (stereo unspecified) was 100 % of control

Sure, the documented T/C for `CCCCn1c(C)nc2c(N)cc(C(F)(F)F)cc21` is 94 % of control

Proceeding to the next molecule to report its T/C.
Please fill in: T/C reported for `Nc1nnc2c3[nH]cnc3ncn12` = 95 % of control

* * *

# Test system: CD2F1 mice, L1210 leukemia ip, survival T/C
# assayText: NCI In Vivo Anticancer Drug Screen. Data for tumor model L1210 Leukemia (intraperitoneal) in CD2F1 (CDF1) mice
# conditionDescription: endpoint: mean survival time; dose: 100.0 mg/kg/injection; schedule: Q01DX009 (ip); vehicle: saline with Tween-80; higher = longer survival
Toxic doses and inconclusive results are not listed.
// reported T/C for each item listed

Record excerpt, results attached:
// molecule `Nc1ccc2c(Cl)cc(Cl)cc2c1` , assay CD2F1 mice, L1210 leukemia ip, survival T/C, T/C value: 103 % of control

Note to self: T/C of `O=S(=O)(OC(Cc1ccccc1)Cc1ccccc1)c1ccc(Br)cc1` with CD2F1 mice, L1210 leukemia ip, survival T/C was 91 % of control

Let me check: `C/C=C/c1ccc(OC(C)=O)c(OC)c1` , system CD2F1 mice, L1210 leukemia ip, survival T/C, measured T/C is 100 % of control

Measured T/C for this entry `O=C1C=CC(=O)N1c1nccs1` on CD2F1 mice, L1210 leukemia ip, survival T/C: 91 % of control

Tested on CD2F1 mice, L1210 leukemia ip, survival T/C, the item `C=CC/C=C/CCCCCC` showed T/C equal to 96 % of control

Continuing:
Reported CD2F1 mice, L1210 leukemia ip, survival T/C T/C for item `CS/C(N)=N\S(=O)(=O)c1ccc(NC(C)=O)cc1` was 98 % of control

Tested on CD2F1 mice, L1210 leukemia ip, survival T/C: `c1ccc2[nH]c(CCCCCCCCc3nc4ccccc4[nH]3)nc2c1` . Observed T/C: 102 % of control

Lab entry: CD2F1 mice, L1210 leukemia ip, survival T/C assay, molecule `CC(C)=CCC/C(C)=C\COC(=N)C(Cl)(Cl)Cl` , T/C = 92 % of control

Response field T/C (CD2F1 mice, L1210 leukemia ip, survival T/C) for item `O=C(O)/C=C/C(=O)Nc1ccc(Cl)cc1` : 104 % of control

Readout T/C for NNC(=O)C1C2CCCCC21 (stereo not drawn) , test system CD2F1 mice, L1210 leukemia ip, survival T/C, was 97 % of control

Bench note, CD2F1 mice, L1210 leukemia ip, survival T/C: entry `O=C(c1ccc(F)cc1)c1ccc([N+](=O)[O-])cc1` , its T/C = 103 % of control

Summary line: COC(=O)C1C2C=CC(C3CCC23)C1C(=O)OC (stereo not drawn) , CD2F1 mice, L1210 leukemia ip, survival T/C, reported T/C = 100 % of control

T/C of `CCOC(=O)NS(=O)(=O)Nc1ccccc1` , assay on CD2F1 mice, L1210 leukemia ip, survival T/C, is 104 % of control

Values compiled from PubChem BioAssay AID256.
